Entry source: patent US12595253B2

- measured_target: JAK1 (Homo sapiens, UniProt P23458)
- Construct: purchased Carna Biosciences
- Sequence (P23458 whole entry): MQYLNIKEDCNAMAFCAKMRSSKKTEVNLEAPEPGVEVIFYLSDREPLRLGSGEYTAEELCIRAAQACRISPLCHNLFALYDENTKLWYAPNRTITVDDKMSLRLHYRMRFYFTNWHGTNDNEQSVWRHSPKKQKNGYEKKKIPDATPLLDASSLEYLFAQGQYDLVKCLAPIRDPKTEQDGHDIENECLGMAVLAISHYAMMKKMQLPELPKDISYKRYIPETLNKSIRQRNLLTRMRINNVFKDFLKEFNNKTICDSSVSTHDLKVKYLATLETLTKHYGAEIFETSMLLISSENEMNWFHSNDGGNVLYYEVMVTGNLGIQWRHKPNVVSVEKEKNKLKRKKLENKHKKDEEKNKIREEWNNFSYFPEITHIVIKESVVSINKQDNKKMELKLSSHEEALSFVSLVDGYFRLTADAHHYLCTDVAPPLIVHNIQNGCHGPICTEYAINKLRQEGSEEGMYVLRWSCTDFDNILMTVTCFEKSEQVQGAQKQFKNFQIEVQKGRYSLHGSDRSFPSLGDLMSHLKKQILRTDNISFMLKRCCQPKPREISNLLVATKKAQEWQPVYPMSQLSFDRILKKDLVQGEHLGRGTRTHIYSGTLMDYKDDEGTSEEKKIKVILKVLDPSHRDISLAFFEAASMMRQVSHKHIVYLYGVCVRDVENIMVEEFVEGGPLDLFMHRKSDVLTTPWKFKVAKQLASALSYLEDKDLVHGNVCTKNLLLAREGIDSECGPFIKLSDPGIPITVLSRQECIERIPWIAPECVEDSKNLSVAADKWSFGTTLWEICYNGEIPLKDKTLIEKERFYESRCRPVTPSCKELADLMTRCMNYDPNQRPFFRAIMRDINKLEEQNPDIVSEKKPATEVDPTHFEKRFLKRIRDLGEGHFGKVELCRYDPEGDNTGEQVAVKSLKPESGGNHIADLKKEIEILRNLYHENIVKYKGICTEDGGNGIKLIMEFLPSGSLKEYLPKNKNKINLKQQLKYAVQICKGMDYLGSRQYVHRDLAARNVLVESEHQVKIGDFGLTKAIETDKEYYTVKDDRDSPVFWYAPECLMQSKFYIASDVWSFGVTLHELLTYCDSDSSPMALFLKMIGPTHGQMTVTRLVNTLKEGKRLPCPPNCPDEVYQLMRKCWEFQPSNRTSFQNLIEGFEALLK
- assay_overview: JAK1 microfluidic kinase assay (Caliper EZ Reader II, FAM labeled peptide substrate)
- Assay type: biochemical
- test_context: IC50 JAK1 (5 nM) (1 m MATP), JAK1 5 nM, 1 mM ATP
Record form. Attribute: pIC50. Fill in for each entry.
In simple prose, pIC50 is minus the logarithm base ten of a concentration in moles per litre.

Short answer please: pIC50, JAK1 (Homo sapiens, UniProt P23458), entry Cc1cnc(Nc2cnn(C(C)C(F)(F)F)c2)nc1-c1ccc(C(=O)NCC#N)cc1 (stereo not drawn) [Example 112]
8.19

Short answer please: pIC50, JAK1 (Homo sapiens, UniProt P23458), entry Cc1cnc(Nc2cnn(C3CCCOC3)c2)nc1-c1ccc(C(=O)NCC#N)cc1 (stereo not drawn) [Example 67]
7.77

Short answer please: pIC50, JAK1 (Homo sapiens, UniProt P23458), entry N#CCNC(=O)c1ccc(-c2nc(Nc3cnn(C4CCOCC4)c3)ncc2Cl)cc1 [Example 146]
7.87

* * *

- measured_target: JAK2 (Homo sapiens, UniProt O60674)
- Construct: purchased Carna Biosciences
- Sequence (O60674 whole entry): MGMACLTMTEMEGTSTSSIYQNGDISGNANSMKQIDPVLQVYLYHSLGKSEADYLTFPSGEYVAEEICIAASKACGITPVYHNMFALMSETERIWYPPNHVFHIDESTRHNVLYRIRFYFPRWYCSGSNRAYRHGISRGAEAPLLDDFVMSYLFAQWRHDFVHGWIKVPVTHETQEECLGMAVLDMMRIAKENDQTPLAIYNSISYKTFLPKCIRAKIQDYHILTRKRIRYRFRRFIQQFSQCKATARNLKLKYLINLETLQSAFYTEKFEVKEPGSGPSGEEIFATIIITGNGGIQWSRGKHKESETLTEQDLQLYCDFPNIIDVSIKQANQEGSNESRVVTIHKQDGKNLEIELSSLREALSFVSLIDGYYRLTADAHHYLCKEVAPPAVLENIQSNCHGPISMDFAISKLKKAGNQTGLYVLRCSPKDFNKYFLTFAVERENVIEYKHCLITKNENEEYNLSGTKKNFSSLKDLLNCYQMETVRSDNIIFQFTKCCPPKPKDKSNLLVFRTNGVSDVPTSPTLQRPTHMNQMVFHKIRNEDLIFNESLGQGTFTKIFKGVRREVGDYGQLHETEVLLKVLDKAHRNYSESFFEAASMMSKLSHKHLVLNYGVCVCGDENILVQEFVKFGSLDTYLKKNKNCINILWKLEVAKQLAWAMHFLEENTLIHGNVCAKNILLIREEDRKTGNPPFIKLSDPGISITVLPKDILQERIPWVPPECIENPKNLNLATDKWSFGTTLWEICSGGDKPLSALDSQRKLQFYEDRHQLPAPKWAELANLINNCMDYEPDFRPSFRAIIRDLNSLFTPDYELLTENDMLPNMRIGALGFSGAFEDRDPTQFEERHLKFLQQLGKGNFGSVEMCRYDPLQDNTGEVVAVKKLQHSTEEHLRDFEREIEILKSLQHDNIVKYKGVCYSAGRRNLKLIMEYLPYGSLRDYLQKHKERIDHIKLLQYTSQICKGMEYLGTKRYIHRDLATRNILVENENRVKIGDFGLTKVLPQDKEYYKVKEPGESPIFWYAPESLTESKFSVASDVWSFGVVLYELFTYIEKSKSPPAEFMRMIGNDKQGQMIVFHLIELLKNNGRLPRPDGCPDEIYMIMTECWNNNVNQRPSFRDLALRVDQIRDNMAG
- assay_overview: JAK2 microfluidic kinase assay (Caliper EZ Reader II, FAM labeled peptide substrate)
- Format: biochemical
- test_context: IC50 JAK2 ([…]) (1 mM ATP), 1 mM ATP
Record form. Attribute: IC50. Fill in for each entry.
Value expressed in nM; do not type the unit.

Field request: IC50 | item: Cc1cnc(Nc2cnn(C3CCOCC3)c2)nc1-c1ccc(C(=O)NCC#N)cc1
1.03

Field request: IC50 | item: Cc1cnc(Nc2cnn(C3CC(F)(F)C3)c2)nc1-c1ccc(C(=O)NCC#N)cc1
1150

Field request: IC50 | item: CC[C@@H](C#N)NC(=O)c1ccc(-c2nc(Nc3cnn(C(C)C(F)(F)F)c3)ncc2C)cc1 (single isomer, unassigned) [Example 226]
32.2

Field request: IC50 | item: CC(C)n1cc(Nc2ncc(Cl)c(-c3ccc(C(=O)N[C@@H](C)C#N)cc3)n2)cn1
0.39

Field request: IC50 | item: CC[C@@H](C#N)NC(=O)c1ccc(-c2nc(Nc3cnn(C4CCN(C)CC4)c3)ncc2C)cc1
0.37

Field request: IC50 | item: Cc1cnc(Nc2cnn(C3CC3)c2)nc1-c1ccc(C(=O)N[C@@H](C)C#N)cc1
10.6

Field request: IC50 | item: Cc1cnc(Nc2cnn(C3CC3)c2)nc1-c1ccc(C(=O)NCC#N)nc1
30.9

Field request: IC50 | item: CO[C@H]1CC[C@@H](n2cc(Nc3ncc(C)c(-c4ccc(C(=O)N[C@@H](C)C#N)cc4)n3)cn2)CC1
0.47

* * *

- measured_target: TYK2 (Homo sapiens)
- Construct: purchased Carna Biosciences
- Sequence (P29597 whole entry): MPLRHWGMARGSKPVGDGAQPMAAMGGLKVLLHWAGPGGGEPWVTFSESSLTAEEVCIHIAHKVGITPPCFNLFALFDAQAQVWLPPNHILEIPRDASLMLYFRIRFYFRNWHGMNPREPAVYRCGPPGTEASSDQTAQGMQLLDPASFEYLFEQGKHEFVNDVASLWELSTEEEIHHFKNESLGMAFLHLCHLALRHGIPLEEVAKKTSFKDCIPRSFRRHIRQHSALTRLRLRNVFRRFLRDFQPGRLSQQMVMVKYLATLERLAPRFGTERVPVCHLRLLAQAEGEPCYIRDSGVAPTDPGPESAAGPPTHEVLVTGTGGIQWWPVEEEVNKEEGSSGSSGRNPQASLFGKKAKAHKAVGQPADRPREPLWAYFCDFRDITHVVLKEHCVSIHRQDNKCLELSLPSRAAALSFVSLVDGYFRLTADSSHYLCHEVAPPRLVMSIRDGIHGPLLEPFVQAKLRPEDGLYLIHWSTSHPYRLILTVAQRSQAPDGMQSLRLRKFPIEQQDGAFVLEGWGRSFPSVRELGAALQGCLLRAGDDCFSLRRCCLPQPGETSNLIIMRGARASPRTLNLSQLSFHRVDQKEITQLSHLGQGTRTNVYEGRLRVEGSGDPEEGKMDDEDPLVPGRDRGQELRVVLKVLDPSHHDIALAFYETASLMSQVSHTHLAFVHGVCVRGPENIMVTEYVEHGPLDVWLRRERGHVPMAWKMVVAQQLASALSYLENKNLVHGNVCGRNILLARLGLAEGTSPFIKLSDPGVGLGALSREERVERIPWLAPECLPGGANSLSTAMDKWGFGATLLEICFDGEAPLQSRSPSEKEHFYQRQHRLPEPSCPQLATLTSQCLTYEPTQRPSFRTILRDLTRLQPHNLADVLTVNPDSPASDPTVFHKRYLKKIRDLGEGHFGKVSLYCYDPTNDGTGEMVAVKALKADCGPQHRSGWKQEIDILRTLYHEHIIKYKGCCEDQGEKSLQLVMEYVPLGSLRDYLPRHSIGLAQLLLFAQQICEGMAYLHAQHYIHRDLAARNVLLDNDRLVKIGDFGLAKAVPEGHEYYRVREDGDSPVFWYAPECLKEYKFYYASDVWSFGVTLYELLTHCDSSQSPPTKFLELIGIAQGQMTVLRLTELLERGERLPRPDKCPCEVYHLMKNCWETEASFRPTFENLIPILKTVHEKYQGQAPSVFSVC
- assay_overview: TYK2 microfluidic kinase assay (Caliper EZ Reader II, FAM labeled peptide substrate)
- Type: biochemical
- test_context: IC50 TYK2 ([…]) (1 mM ATP), TYK2 […], 1 mM ATP
Record form. Attribute: log10(IC50). Fill in for each entry.
Record value = log10 of IC50 given in nM.

Field request: log10(IC50) | item: C[C@@H](C#N)NC(=O)c1ccc(-c2nc(Nc3cnn(CC(N)=O)c3)ncc2Cl)cc1 [Example 47]
1.70

Field request: log10(IC50) | item: C[C@@H](C#N)NC(=O)c1ccc(-c2nc(Nc3cnn(C)c3)ncc2Cl)cc1 [Example 125]
2.16

Field request: log10(IC50) | item: N#CCNC(=O)c1ccc(-c2nc(Nc3cnn(CC#N)c3)ncc2Cl)cc1 [Example 41]
1.85

Field request: log10(IC50) | item: Cn1cc(Nc2ncc(Cl)c(-c3ccc(C(=O)NCC#N)cc3)n2)cn1 [Example 34]
1.99

Field request: log10(IC50) | item: Cc1cnc(Nc2cn[nH]c2)nc1-c1ccc(C(=O)N[C@@H](C)C#N)cc1 [Example 199]
1.48

Field request: log10(IC50) | item: CC(C)(C#N)CNC(=O)c1ccc(-c2nc(Nc3cnn(C4CCOCC4)c3)ncc2Cl)cc1 [Example 80]
2.57

Field request: log10(IC50) | item: CC[C@@H](C#N)NC(=O)c1ccc(-c2nc(Nc3cnn(C(C)C(F)(F)F)c3)ncc2C)cc1 (single isomer, unassigned) [Example 225]
1.83
